assay: intrinsic fluorescence of library compounds, ex339/em460 – biochemical, MLSMR library, data from DPM-DC assay, artefact control, profiling panel (AID 709); settings: compound autofluorescence, ex339/em460 nm, NADH buffer; at 10 µM; active compounds read high; 1 = no-compound wells, NADH background;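 also: signal is the first read of a kinetic run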
Among all 65,000 compounds or so, about 3,600 (5.5%) were called active. This is one part of a sample in which actives are shown more often than they occur.
This listing pairs compounds with measured fluorescence fold increase.
API doc: respond with a numeric literal and nothing else, no unit.

{"columns": ["Compound", "fluorescence fold increase"],
 "data": [
  ["O=C(Cc1ccccc1)n1nc(-c2ccccc2)nc1NCc1ccco1", 1.13],
  ["COc1cccc(N2CCN(C3CC(=O)N(c4ccc(Cl)cc4)C3=O)CC2)c1 (stereo not drawn)", 1.12],
  ["Nc1ccc(-c2nnc(-c3ccc(-c4ccccc4)cc3)o2)cc1", 3.89],
  ["COc1ccc2nc(N3CCCC(O)C3)c(C#N)cc2c1 (stereo not drawn)", 2.58],
  ["CCN1CCN(Cc2c(O)ccc3c(=O)c(-c4ccc(OC)c(OC)c4)c(C(F)(F)F)oc23)CC1", 1.18],
  ["CCOc1ccc2nc(N3CCCN(C(=O)Nc4ccccc4C)CC3)c(C#N)cc2c1", 1.7]
]}

Enquiry: So what's the measured fluorescence fold increase for this one? `O=C(Nc1ccc(-c2nnc(-c3ccccc3)o2)cc1)c1ccc(Br)o1`
Return: 1.45

Enquiry: So what's the measured fluorescence fold increase for this one? `O=C(Nc1ccc2c(c1)nc1n2CCCCC1)c1cc(S(=O)(=O)N2CCOCC2)ccc1Cl`
Return: 1.09

Enquiry: So what's the measured fluorescence fold increase for this one? `c1ccc(-n2ncc3c2ncn2c(CSc4nc5ccccc5s4)nnc32)cc1`
Return: 1.81

Enquiry: So what's the measured fluorescence fold increase for this one? CCOc1ccc2[nH]c(=O)c(CN(Cc3nnnn3Cc3ccccc3)CC3CCCO3)cc2c1 (stereo not drawn)
Return: 2.24

Enquiry: So what's the measured fluorescence fold increase for this one? CC(C)CCNC(=O)C1CCCN(S(=O)(=O)c2ccc(F)cc2)C1 (stereo not drawn)
Return: 1.06

Enquiry: So what's the measured fluorescence fold increase for this one? CCOC(=O)C1=C(C)N=c2s/c(=C\C(=O)OC)c(=O)n2C1c1ccc(OC)cc1 (stereo not drawn)
Return: 1.08

###

assay: intrinsic fluorescence of library compounds, ex339/em460 – biochemical, MLSMR library, data from DPM-DC assay, artefact control, profiling panel (AID 709); conditions: compound autofluorescence, ex339/em460 nm, NADH buffer; at 10 µM; 1 = no-compound wells, NADH background;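 also: signal is the first read of a kinetic run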
Screen size: about 65,000 compounds; about 3,600 (5.5%) were called active.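 The calls were made as follows: active = at 10 µM, mean starting fluorescence two-fold or more over control wells; inactive = the rest.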 Many of the other results were omitted from the sample, so actives are more common in it than they were.
Please state which outcome applies, choosing from 1 (active), -1 (inactive)

{"columns": ["Compound", "Group"],
 "data": [
  ["CCN(CC)CCNC(=O)C1c2ccccc2C(=O)N(C)C1c1cn(C)c2ccccc12 (stereo not given)", -1],
  ["CCCCn1c(SCC(=O)NCC2CCCO2)nc2ccc(N3CCOCC3)cc2c1=O (stereo not given)", 1],
  ["O=C(Cn1c(=S)nc2ccccn21)N1CCc2ccccc2C1", -1]
]}

Enquiry: What call does the record list for CCC(C)(C)n1nnnc1C(c1cccs1)N1CCN(c2nc3ccccc3s2)CC1 (stereo not given) ?
Return: -1

Enquiry: What call does the record list for `Cn1c(C(=O)NCCCN2CCCCC2)cc2sccc21` ?
Return: -1

Enquiry: What call does the record list for `CC(=O)c1sc2nc(SCC(=O)N3CCCCC3)[nH]c(=O)c2c1C` ?
Return: 1

Enquiry: What call does the record list for `O=C(CSc1nc2c(cnn2-c2ccc(F)cc2)c(=O)[nH]1)N1CCCCCC1` ?
Return: -1

Enquiry: What call does the record list for CCn1c(SCC(=O)NCC2CCCO2)nc2cc(S(=O)(=O)N3CCCCC3)ccc21 (stereo not given) ?
Return: -1

Enquiry: What call does the record list for `Cc1cccc(OCc2nnc(SCC(=O)N3CCN(C(=O)c4ccco4)CC3)n2C)c1C` ?
Return: -1

Enquiry: What call does the record list for CCOC(=O)c1sc(NC(=O)C(CC)Sc2nccn2C)nc1C (stereo not given) ?
Return: -1

###

assay: intrinsic fluorescence of library compounds, ex339/em460 – biochemical, MLSMR library, data from DPM-DC assay, artefact control, profiling panel (AID 709); details: compound autofluorescence, ex339/em460 nm, NADH buffer; at 10 µM; 1 = no-compound wells, NADH background;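 also: signal is the first read of a kinetic run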
The campaign covered roughly 65,000 compounds. About 3,600 (5.5%) were called active.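 Rule for the calls: active = at 10 µM, mean starting fluorescence two-fold or more over control wells; inactive = the rest.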 This is one part of a sample in which actives are shown more often than they occur.
Please state which outcome applies, choosing from TRUE (active), FALSE (inactive)

Sample answers from the record:
{"columns": ["Structure notation", "Group"],
 "data": [
  ["CC(=O)O[C@]1(C(C)=O)CC[C@H]2[C@@H]3C=C(C)C4=CC(=O)CC[C@]4(C)[C@H]3CC[C@@]21C", "FALSE"],
  ["CCOc1nc(-c2ccc(OC)cc2)ccc1-c1noc(-c2cc(OC)c(OC)c(OC)c2)n1", "TRUE"]
]}

Enquiry: What call does the record list for `Cc1ccc2c(c1)N(C(=O)CCC(=O)N1CCc3ccccc3C1)CCO2` ?
Return: FALSE

Enquiry: What call does the record list for `CCc1cc(=O)oc2cc(OCC(=O)N3CCCc4ccccc43)ccc12` ?
Return: FALSE

Enquiry: What call does the record list for `NC(=O)COc1ccc2c3c(c(=O)oc2c1)CCCCC3` ?
Return: TRUE

Enquiry: What call does the record list for `COc1ccc(-c2ccc(-c3noc(-c4ccncc4)n3)c(OC)n2)cc1` ?
Return: TRUE

Enquiry: What call does the record list for `CCN1CCc2c(C#N)c(NCc3ccccc3)nc(NCCO)c2C1` ?
Return: TRUE

Enquiry: What call does the record list for `CCNCc1cc2cc(C)ccc2[nH]c1=O` ?
Return: FALSE

###

assay: intrinsic fluorescence of library compounds, ex339/em460 – biochemical, MLSMR library, data from DPM-DC assay, artefact control, profiling panel (AID 709); conditions: compound autofluorescence, ex339/em460 nm, NADH buffer; at 10 µM; active compounds read high; 1 = no-compound wells, NADH background;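 also: signal is the first read of a kinetic run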
The campaign covered roughly 65,000 compounds. About 3,600 (5.5%) were called active. Shown is part of a subset that was picked to be rich in actives.
This listing pairs molecules with measured fluorescence fold increase.
API doc: respond with a numeric literal and nothing else, no unit.

Observe how each entry below is paired with its result.
{"columns": ["Molecule", "fluorescence fold increase"],
 "data": [
  ["CCOC(=O)c1cnc(-n2nc(C)cc2C)nc1-n1nc(C)cc1C", 1.13],
  ["CC(C)CC(=O)N=C1SC2CS(=O)(=O)CC2N1CCc1ccccc1 (centres undefined)", 1.1],
  ["CCOC(=O)c1cnc2sccn2c1=O", 3.33],
  ["CCN(CC)C(=O)CSc1nnc(-c2cccc(OC)c2)o1", 1.05],
  ["COc1ccc(C(C(O)C(=O)c2c[nH]c3ccccc23)N2CCN(c3ccccc3)CC2)cc1 (centres undefined)", 1.15]
]}

Please look at the following molecule next.
Enquiry: So what's the measured fluorescence fold increase for this one? `Nc1cc(=O)nc(SCc2ccccc2)n1Cc1ccco1`
Return: 1.05

###

assay: intrinsic fluorescence of library compounds, ex339/em460 – biochemical, MLSMR library, data from DPM-DC assay, artefact control, profiling panel (AID 709); settings: compound autofluorescence, ex339/em460 nm, NADH buffer; at 10 µM; 1 = no-compound wells, NADH background;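 also: signal is the first read of a kinetic run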
Among all 65,000 compounds or so, about 3,600 (5.5%) were called active.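 The calls were made as follows: active = at 10 µM, mean starting fluorescence two-fold or more over control wells; inactive = the rest.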 The full list was thinned out, with actives kept by preference.
Please state which outcome applies, choosing from active, inactive

Sample answers from the record:
{"columns": ["Molecule", "Group"],
 "data": [
  ["CNC(=O)Nc1cc(C(C)(C)C)no1", "inactive"],
  ["CC1Oc2ccccc2N(Cc2cccnc2)C1=O (stereo unspecified)", "inactive"],
  ["CCOc1ccc(C2C(C(=O)NC)=C(C)Nc3nc4ccccc4n32)cc1OC (stereo unspecified)", "inactive"],
  ["CCN(CC(=O)NC(C)C)C(=O)CCNC(=O)c1ccc(Cl)cc1", "inactive"],
  ["CN(c1ccc(C(=O)N2CCc3ccccc3C2)cc1)S(C)(=O)=O", "inactive"],
  ["COc1ccc(-n2ncc3c(N4CCCc5ccccc54)ncnc32)cc1", "active"]
]}

Enquiry: What call does the record list for Cc1ccc(S(=O)(=O)NC(C)C(=O)Nc2ccccc2C(=O)N2CCCC2)cc1 (stereo unspecified) ?
Return: inactive

Enquiry: What call does the record list for `O=C(Nc1ccccc1N1CCN(C(=O)c2ccccc2)CC1)c1ccc2c(c1)OCO2` ?
Return: inactive

Enquiry: What call does the record list for `C1=C(CCNc2ncnc3c2cnn3-c2ccccc2)CCCC1` ?
Return: inactive

Enquiry: What call does the record list for `COc1ccc(-n2c(C)nc3c(cnn3-c3ccccc3)c2=O)cc1` ?
Return: inactive

Enquiry: What call does the record list for `CCOc1ccc(S(=O)(=O)n2ccnc2)c2ccccc12` ?
Return: inactive
